# procedure summary: Half life in Sprague-Dawley rat at 2.5 mg/kg, iv and 10 mg/kg, po
# Assay type: ADME, organism-based
# experimental setup: in vivo
measured property: half-life (h)
Give bare numbers, in h.

May I ask what half-life has been recorded for Cc1ccc([C@@H](CC(C)C)NC(=O)CCN(C)C)c(N2CCN(C(=O)[C@H](C)Cc3ccc(Cl)cc3Cl)CC2)n1 ?
3.3

====

# procedure summary: Cmax in monkey at 10 mg/kg, po
# Type: ADME, organism-based, Macaca mulatta
# Parameters: dose 10 mg/kg, route oral
# experimental setup: rhesus monkey, in vivo
measured property: Cmax (ng/mL)
One number for each entry, in ng/mL.

May I ask what Cmax has been recorded for CC(C)C[C@H](NC(=O)CCN(C)C)c1cc(Cl)ccc1N1CCN(C(=O)[C@H](C)Cc2ccc(Cl)cc2)CC1 ?
108

====

# system tested: Melanocortin receptor 3 (Mus musculus)
# Sequence (P33033 whole entry): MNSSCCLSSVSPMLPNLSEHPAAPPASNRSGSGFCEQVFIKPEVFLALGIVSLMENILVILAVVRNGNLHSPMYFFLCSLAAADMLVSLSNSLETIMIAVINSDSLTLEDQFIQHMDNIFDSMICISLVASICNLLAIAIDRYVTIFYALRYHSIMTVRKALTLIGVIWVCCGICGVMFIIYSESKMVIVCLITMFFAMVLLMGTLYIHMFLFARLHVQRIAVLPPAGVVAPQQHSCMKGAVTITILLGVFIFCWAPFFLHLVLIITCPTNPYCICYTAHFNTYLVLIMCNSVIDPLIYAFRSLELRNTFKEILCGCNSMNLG
measured property: Ki (µM)
One number for each entry, in µM.

May I ask what Ki has been recorded for CC(C)C[C@H](NC(=O)CCN(C)C)c1cc(Cl)ccc1N1CCN(C(=O)[C@H](C)Cc2ccc(Cl)cc2)CC1 ?
0.34

====

# system tested: Melanocortin receptor 3 (Homo sapiens)
# Sequence (P41968 whole entry): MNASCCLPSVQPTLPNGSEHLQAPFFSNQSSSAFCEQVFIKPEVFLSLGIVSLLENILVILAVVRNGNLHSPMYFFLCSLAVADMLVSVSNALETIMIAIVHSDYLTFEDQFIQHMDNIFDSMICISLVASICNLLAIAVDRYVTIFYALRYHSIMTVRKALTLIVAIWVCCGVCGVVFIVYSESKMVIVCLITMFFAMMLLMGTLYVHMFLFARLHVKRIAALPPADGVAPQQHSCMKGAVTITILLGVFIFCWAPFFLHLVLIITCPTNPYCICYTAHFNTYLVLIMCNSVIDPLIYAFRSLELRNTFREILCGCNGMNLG
measured property: Ki (µM)
Numbers only, in µM.

>  <given smiles>
Cc1ccc(N2CCN(C(=O)[C@H](C)Cc3ccc(Cl)cc3)CC2)c([C@H](CC(C)C)NC(=O)CCN(C)C)c1

>  <Ki (µM)>
2.8

$$$$

May I ask what Ki has been recorded for CC(C)C[C@H](NC(=O)CCN(C)C)c1cc(Cl)ccc1N1CCN(C(=O)[C@H](C)Cc2ccc(Cl)cc2)CC1 ?
0.71

====

# procedure summary: Ratio of drug level in brain to plasma in Sprague-Dawley rat at 10 mg/kg, po after 1 hr
# Assay type: ADME, organism-based
# Design: dose 10 mg/kg, route oral
# experimental setup: brain and plasma, read-out: BPR
Kindly supply the reported Kp at 1 h values for the records listed here.
Numbers only.

Below, each entry is followed by its recorded Kp at 1 h result.
>  <given smiles>
Cc1ccc(N2CCN(C(=O)[C@H](C)Cc3ccc(Cl)cc3)CC2)c([C@H](CC(C)C)NC(=O)CCN(C)C)c1

>  <measured property>
Kp at 1 h

>  <test value>
0.2

$$$$
>  <given smiles>
CC(C)C[C@H](NC(=O)CCN(C)C)c1cc(Cl)ccc1N1CCN(C(=O)[C@H](C)Cc2ccc(Cl)cc2)CC1

>  <measured property>
Kp at 1 h

>  <test value>
0.1

$$$$
>  <given smiles>
Cc1ccc([C@@H](CC(C)C)NC(=O)CCN(C)C)c(N2CCN(C(=O)[C@H](C)Cc3ccc(Cl)cc3Cl)CC2)n1

>  <measured property>
Kp at 1 h

>  <test value>
0.2

$$$$

# evaluate next
May I ask what Kp at 1 h has been recorded for Cc1ccc(N2CCN(C(=O)[C@@H](Cc3ccc(Cl)cc3Cl)N3CCCC3=O)CC2)c([C@H](CC(C)C)NC(=O)CCN(C)C)c1 ?
0.2

====

Kindly supply the reported half-life values for the records listed here.
# procedure summary: Half life in Sprague-Dawley rat at 5 mg/kg, iv and 10 mg/kg, po
# Assay type: ADME, organism-based
# experimental setup: in vivo
Note: state the figure and append the unit.

Below, each entry is followed by its recorded half-life result.
>  <given smiles>
Cc1ccc(N2CCN(C(=O)[C@H](C)Cc3ccc(Cl)cc3)CC2)c([C@H](CC(C)C)NC(=O)CCN(C)C)c1

>  <half-life>
186 min

$$$$
>  <given smiles>
Cc1ccc(N2CCN(C(=O)[C@@H](Cc3ccc(Cl)cc3Cl)N3CCCC3=O)CC2)c([C@H](CC(C)C)NC(=O)CCN(C)C)c1

>  <half-life>
156 min

$$$$

# evaluate next
May I ask what half-life has been recorded for CC(C)C[C@H](NC(=O)CCN(C)C)c1cc(Cl)ccc1N1CCN(C(=O)[C@H](C)Cc2ccc(Cl)cc2)CC1 ?
132 min

====

# procedure summary: Half life in monkey at 5 mg/kg, iv
# Assay type: ADME, organism-based, Macaca mulatta
# Set-up: dose 5 mg/kg, route intravenous
# experimental setup: rhesus monkey, in vivo
measured property: half-life (h)
Answers are plain numbers, in h.

May I ask what half-life has been recorded for CC(C)C[C@H](NC(=O)CCN(C)C)c1cc(Cl)ccc1N1CCN(C(=O)[C@H](C)Cc2ccc(Cl)cc2)CC1 ?
4.1

====

# system tested: Cytochrome P450 2D6 (Homo sapiens, UniProt P10635)
# Sequence (P10635 whole entry): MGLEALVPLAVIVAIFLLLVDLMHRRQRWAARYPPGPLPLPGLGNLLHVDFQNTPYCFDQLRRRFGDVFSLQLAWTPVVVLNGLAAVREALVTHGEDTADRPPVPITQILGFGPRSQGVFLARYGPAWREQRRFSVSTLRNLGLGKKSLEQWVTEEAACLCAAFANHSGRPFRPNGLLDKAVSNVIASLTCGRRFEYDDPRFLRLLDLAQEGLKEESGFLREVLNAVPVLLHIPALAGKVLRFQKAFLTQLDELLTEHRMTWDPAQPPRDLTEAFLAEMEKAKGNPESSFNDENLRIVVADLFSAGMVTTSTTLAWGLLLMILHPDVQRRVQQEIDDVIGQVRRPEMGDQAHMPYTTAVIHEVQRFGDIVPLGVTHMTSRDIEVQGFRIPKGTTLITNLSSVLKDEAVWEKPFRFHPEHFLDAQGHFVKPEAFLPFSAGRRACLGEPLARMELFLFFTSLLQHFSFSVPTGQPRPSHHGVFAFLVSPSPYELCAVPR
pIC50: −log10 of the molar value.
measured property: pIC50

State its pIC50 on Cytochrome P450 2D6 (Homo sapiens, UniProt P10635): CC(C)C[C@H](NC(=O)CCN(C)C)c1cc(Cl)ccc1N1CCN(C(=O)[C@H](C)Cc2ccc(Cl)cc2)CC1
< 5.00

====

# procedure summary: Tmax in Sprague-Dawley rat at 5 mg/kg, iv and 10 mg/kg, po
# Assay type: ADME, organism-based
# experimental setup: in vivo
measured property: Tmax
Note: state the figure and append the unit.

For each of the items listed, what is its Tmax?
1. Cc1ccc(N2CCN(C(=O)[C@@H](Cc3ccc(Cl)cc3Cl)N3CCCC3=O)CC2)c([C@H](CC(C)C)NC(=O)CCN(C)C)c1
2. Cc1ccc(N2CCN(C(=O)[C@H](C)Cc3ccc(Cl)cc3)CC2)c([C@H](CC(C)C)NC(=O)CCN(C)C)c1
3. CC(C)C[C@H](NC(=O)CCN(C)C)c1cc(Cl)ccc1N1CCN(C(=O)[C@H](C)Cc2ccc(Cl)cc2)CC1

["4 h", "5.3 h", "6 h"]

====

# procedure summary: Half life in CD1 mouse at 5 mg/kg, iv
# Assay type: ADME, organism-based
# Design: dose 5 mg/kg, route intravenous
# experimental setup: in vivo
measured property: half-life
Note: state the figure and append the unit.

>  <given smiles>
CC(C)C[C@H](NC(=O)CCN(C)C)c1cc(Cl)ccc1N1CCN(C(=O)[C@H](C)Cc2ccc(Cl)cc2)CC1

>  <test value>
3.5 h

$$$$

# evaluate next
May I ask what half-life has been recorded for CC(C)C[C@@H](NC(=O)CN)c1cccnc1N1CCN(C(=O)[C@H](C)Cc2ccc(Cl)cc2Cl)CC1 ?
5.2 h

====

# procedure summary: Tmax in CD1 mouse at 10 mg/kg, ip
# Type: ADME, organism-based
# Set-up: dose 10 mg/kg, route intraperitoneal
# experimental setup: in vivo
measured property: Tmax (min)
Answers are plain numbers, in min.

May I ask what Tmax has been recorded for CC(C)C[C@H](NC(=O)CCN(C)C)c1cc(Cl)ccc1N1CCN(C(=O)[C@H](C)Cc2ccc(Cl)cc2)CC1 ?
18

====

# procedure summary: AUC in monkey at 5 mg/kg, iv
# Assay type: ADME, organism-based, Macaca mulatta
# Design: dose 5 mg/kg, route intravenous
# experimental setup: rhesus monkey, plasma
measured property: AUC (ng·h/mL)
Answers are plain numbers, in ng·h/mL.

May I ask what AUC has been recorded for CC(C)C[C@H](NC(=O)CCN(C)C)c1cc(Cl)ccc1N1CCN(C(=O)[C@H](C)Cc2ccc(Cl)cc2)CC1 ?
3700

====

# procedure summary: Cmax in CD1 mouse at 10 mg/kg, ip
# Format: ADME, organism-based
# Parameters: dose 10 mg/kg, route intraperitoneal
# experimental setup: in vivo
measured property: Cmax (ng/mL)
One number for each entry, in ng/mL.

May I ask what Cmax has been recorded for CC(C)C[C@H](NC(=O)CCN(C)C)c1cc(Cl)ccc1N1CCN(C(=O)[C@H](C)Cc2ccc(Cl)cc2)CC1 ?
1520

====

# system tested: Cytochrome P450 1A2 (Homo sapiens)
# Sequence (P05177 whole entry): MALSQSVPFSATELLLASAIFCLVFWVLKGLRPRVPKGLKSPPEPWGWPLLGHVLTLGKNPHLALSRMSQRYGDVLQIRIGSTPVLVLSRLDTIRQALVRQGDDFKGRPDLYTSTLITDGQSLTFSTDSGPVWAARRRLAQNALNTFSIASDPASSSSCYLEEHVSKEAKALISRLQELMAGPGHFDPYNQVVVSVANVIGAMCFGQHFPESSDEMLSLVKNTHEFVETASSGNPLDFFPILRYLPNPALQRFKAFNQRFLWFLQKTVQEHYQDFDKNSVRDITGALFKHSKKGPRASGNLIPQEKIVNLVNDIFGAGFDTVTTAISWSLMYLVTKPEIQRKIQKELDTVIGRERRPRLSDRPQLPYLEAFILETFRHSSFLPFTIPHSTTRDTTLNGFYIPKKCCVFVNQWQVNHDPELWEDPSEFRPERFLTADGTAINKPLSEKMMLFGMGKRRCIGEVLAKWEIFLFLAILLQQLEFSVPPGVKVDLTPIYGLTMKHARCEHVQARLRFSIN
measured property: IC50

State its IC50 on Cytochrome P450 1A2 (Homo sapiens): CC(C)C[C@H](NC(=O)CCN(C)C)c1cc(Cl)ccc1N1CCN(C(=O)[C@H](C)Cc2ccc(Cl)cc2)CC1
> 10 µM
